Test system: blackgrass (Alopecurus myosuroides)
Test Name: Test A1 postemergence, blackgrass
Type: in vivo
Experimental Parameters: Postemergence, 125 g ai/ha; 0 to 100 scale (0 no effect, 100 complete control)
Property: Plant response rating, Blackgrass; scope: individual compounds
Returns: the value as a bare number; no unit string appended.

Here's what some known entries look like.
Compound	Reported Endpoint	Recorded Result
COC(=O)OCN(c1cc(C2=NOC3CCCC23)c(C)cc1C)S(=O)(=O)C(F)(F)F (stereo not drawn)	Plant response rating, Blackgrass	0
Cc1cc(C)c(N(COC(=O)C(C)C)S(=O)(=O)C(F)(F)F)cc1C1=NOC2CCCC12 (stereo not drawn)	Plant response rating, Blackgrass	0
Cc1c(NS(=O)(=O)C(F)(F)F)cc(C(=O)N2CCOCC2)c(C)c1C	Plant response rating, Blackgrass	10

// sample Cc1cc(C)c(N(COC(=O)OC(C)C)S(=O)(=O)C(F)(F)F)cc1C1=NOC2CCCC12 (stereo not drawn) , its Plant response rating, Blackgrass was 10

// sample Cc1c(NS(=O)(=O)C(F)(F)F)cc(C(=O)N2CCC(C)CC2)c(C)c1C , its Plant response rating, Blackgrass was 0

// sample Cc1cc(C)c(N(C(=O)OC(C)C)S(=O)(=O)C(F)(F)F)cc1C1=NOC2CCCC12 (stereo not drawn) , its Plant response rating, Blackgrass was 0

// sample COC1CCN(C(=O)c2cc(N(COC(=O)C(C)(C)C)S(=O)(=O)C(F)(F)F)c(C)c(C)c2C)CC1 , its Plant response rating, Blackgrass was 0

// sample Cc1cc(C)c(N(COC(=O)C(C)(C)C)S(=O)(=O)C(F)(F)F)cc1C1=NOC2CCCCCC12 (single isomer, unassigned) , its Plant response rating, Blackgrass was 0

// sample CCOC(=O)N(c1cc(C(=O)N2CCOCC2)c(C)c(C)c1C)S(=O)(=O)C(F)(F)F , its Plant response rating, Blackgrass was 90

// sample CCC1ON=C(c2cc(NS(=O)(=O)C(F)(F)F)c(C)cc2C)C1CC (stereo not drawn) , its Plant response rating, Blackgrass was 30

// sample C#CCN(C)C(=O)c1cc(NS(=O)(=O)C(F)(F)F)c(Cl)c(F)c1C , its Plant response rating, Blackgrass was 30

// sample COc1cnn(-c2cc(NS(=O)(=O)C(F)(F)F)c(C)cc2C)c(=O)c1OC , its Plant response rating, Blackgrass was 20

// sample CCOC(=O)N(c1cc(C(=O)N2C[C@@H](C)O[C@@H](C)C2)c(C)c(C)c1C)S(=O)(=O)C(F)(F)F , its Plant response rating, Blackgrass was 90

// sample CCOC(=O)N(c1cc(C(=O)N2C[C@@H](C)O[C@H](C)C2)c(C)c(C)c1C)S(=O)(=O)C(F)(F)F (relative stereo) , its Plant response rating, Blackgrass was 10

// sample Cc1cc(C)c(N(COC(=O)C(C)(C)C)S(=O)(=O)C(F)(F)F)cc1C(=O)N1CCC(F)(F)CC1 , its Plant response rating, Blackgrass was 0

Cited source for all entries: patent US20230278972A1
